src = PubChem BioAssay AID2685

ASSAY_NOTES: qHTS Assay for Lipid Storage Modulators in Drosophila S3 Cells;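 note: cells counted by Cell Tracker Red CMTPX staining in the red channel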
SETUP_CONDITIONS: BODIPY lipid droplet fluorescence, 18-24 h, cells fed with added oleic acid; measured here: cell count max response
The whole screen tested about 320,000 compounds, of which about 2,100 (0.66%) were called active. Another 53% or so got no clear call; they are omitted. What follows is part of a selection rich in actives, with near analogues and random picks from the rest.
MEASURED_METRIC: cell number change (%)
Quick note: give the figure in %, leave out the unit.

compound=CCOC(=O)N1CCN(C(=O)c2ccc3c(=O)n(CCc4ccc(OC)c(OC)c4)c(=O)[nH]c3c2)CC1 measured_metric="cell number change" reported_result=12.7
compound=Nc1c(Cl)cc(C2=NCCn3nc4cc([N+](=O)[O-])ccc4c32)cc1Cl measured_metric="cell number change" reported_result=13.3
compound=O=C(O)CSc1nnnn1C1CCCCC1 measured_metric="cell number change" reported_result=12.8
compound=Cc1ccccc1CNC(=O)CCC(=O)N1CCOc2ccc(Cl)cc21 measured_metric="cell number change" reported_result=5.19

IN: Look at this compound and give its reported cell number change. O=C(NC1CCCC1)C(c1ccncc1)N(C(=O)Cc1cccs1)c1ccc(F)cc1 (stereo unspecified)
OUT: 3.33

IN: Requested field: cell number change. Item: CCOC(=O)N1CCN(C(=O)c2ccc3c(=O)n(CCOC)c(=O)[nH]c3c2)CC1
OUT: 1.58

IN: Query (compound): Nc1c(Cl)cc(C2=NCCn3c2c2ccc([N+](=O)[O-])cc2[n+]3[O-])cc1Cl ; field requested: cell number change
OUT: -13.5

IN: I am curious: what cell number change value has been reported for CCCCNCc1cc2ccccc2o1 ?
OUT: -14.5

IN: Using the record for O=C1NCCN1C(=O)c1cccc(Cl)c1 , report its cell number change.
OUT: 4.49

IN: cell number change for O=C(NC1CCCC1)C(c1ccsc1)N(C(=O)Cc1cccs1)c1ccc(F)cc1 (stereo unspecified) ?
OUT: -21.2

IN: Please report the recorded cell number change for O=C1COc2ccc(S(=O)(=O)N3CCN(c4cccc(Cl)c4)CC3)cc2N1 .
OUT: -0.295

IN: Find the recorded cell number change belonging to COC(=O)c1cc(C(=O)N2CCc3ccccc32)cc([N+](=O)[O-])c1 and report it.
OUT: 3.51

IN: cell number change for COCCn1c(=O)[nH]c2cc(C(=O)N3CCN(c4ccccc4F)CC3)ccc2c1=O ?
OUT: -14.1

IN: Value lookup for cell number change; key = C[C@@H]1C=CC(=O)O[C@@H]1c1ccc(C(F)(F)F)cc1
OUT: 9.88

IN: Consider the compound shown here: C[C@@H]1CC[C@H](O)/C=C/C(=O)O[C@H](C)CC[C@H](O)/C=C/C(=O)O1 What is its recorded cell number change?
OUT: -1.52

IN: For O=C(CN1C(=O)c2cccnc2Oc2ccc(Cl)cc21)NCCc1ccccc1 , what is its reported cell number change?
OUT: 10.9

IN: Quick one: cell number change for COCCn1c(=O)[nH]c2cc(C(=O)NCCN3CCN(c4ccccc4F)CC3)ccc2c1=O ?
OUT: -8.35

IN: Endpoint output: cell number change of O=C(CN1C(=O)c2cccnc2Oc2ccc(Cl)cc21)Nc1ccccc1F . Value?
OUT: -28

IN: Can you share its cell number change? I mean this compound: COc1cc2[nH]c(=O)n(Cc3ccc(C(=O)N4CCC(N5CCCCC5)CC4)cc3)c(=O)c2cc1OC
OUT: -3.59

IN: Item under review: OC(COc1c(F)cc(Br)cc1F)CN1CCc2ccccc2C1 (stereo unspecified) . Reported cell number change?
OUT: -1.04

IN: Which cell number change value belongs to O=C(NC1CCCCC1)C(c1ccncc1)N(C(=O)Cc1cccs1)c1ccccc1 (stereo unspecified) ?
OUT: 12.4
